Ref: PubChem BioAssay AID624404

System: D54 LucT luciferase reporter counterscreen, luminescence, 24 h
Assay: reporter signal increase, D54 LucT cells – cell-based, luminescence, cherry pick, counter-screen for N-linked glycosylation inhibitor project, dose response (AID 624404)
Inconclusive results are not listed.
Items are presented alongside their recorded AC35.
QUANTITY MEASURED: AC35

>>> recorded_result("CC(=O)Nc1ccc(CNc2ncnc3ccc(-c4c(C)noc4C)cc23)cc1")
"264 nM"
>>> recorded_result("CCOC(=O)c1[nH]c(C)c(C(=O)Nc2cc(OC)ccc2OC)c1C")
"345 nM"
>>> recorded_result("Cc1ccc(N=Nc2c(N)nn(-c3ccccc3)c2N)cc1")
"56.1 nM"
>>> recorded_result("C[C@@]12C(=O)Nc3cc(F)c(F)cc3C(=O)N1[C@H]1c3cc(Cl)ccc3OC[C@@H]1[C@@H]2c1ccccc1")
"1600 nM"
>>> recorded_result("Cc1ccc(C)n1-c1ccc(C(=O)/C=C/N(C)C)cc1")
"1050 nM"
>>> recorded_result("CCc1nn2c(NCCCO)cc(C)nc2c1-c1ccc(F)cc1")
"184 nM"
>>> recorded_result("CCCNC(=O)c1cc(-c2ccco2)on1")
"903 nM"
>>> recorded_result("O=C(c1ccc2ncsc2c1)N1CCN(c2cccc(C(F)(F)F)c2)CC1")
"629 nM"
>>> recorded_result("COc1ccccc1NC(=O)/C=C/c1ccc2c(c1)OCO2")
"190 nM"
>>> recorded_result("c1ccc(CNc2nc(-c3ccccc3)nc3ccccc23)cc1")
"3010 nM"
>>> recorded_result("Cc1nc(Nc2nc(-c3ccccc3)cc(=O)[nH]2)nc2ccccc12")
"4910 nM"
>>> recorded_result("CCOC(=O)N1CCN(C(=O)c2cc(-c3ccncc3)nc3ccccc23)CC1")
"5630 nM"
>>> recorded_result("COc1cc2c(cc1OC)C(c1cccs1)N(C(=O)c1cccc(S(=O)(=O)N(C)C)c1)CC2 (stereo not drawn)")
"640 nM"
>>> recorded_result("Cn1c(-c2ccccc2)c(/C=N/NC(=O)c2cccnc2)c2ccccc21")
"171 nM"
>>> recorded_result("COc1cc(-c2nc(-c3ccccc3)c(-c3cccs3)[nH]2)cc(OC)c1OC")
"7050 nM"
>>> recorded_result("O=C(NC1CCCC(C(F)(F)F)C1)c1ccc([N+](=O)[O-])o1 (stereo not drawn)")
"3970 nM"
>>> recorded_result("COc1cccc(-c2cnc3c(NC(C)=O)cc(-c4cc(F)ccc4OC)cn23)c1")
"4270 nM"
>>> recorded_result("CCOc1ccc(/C=C/C(=O)c2ccccc2)cc1OC")
"1260 nM"
>>> recorded_result("Cc1ccc(C)c(Cn2nnc3c(=O)[nH]c(C4CCN(C(=O)c5ccco5)CC4)nc32)c1")
"852 nM"
>>> recorded_result("COc1cc(F)ccc1-c1csc(C(NC(C)=O)c2ccccc2)n1 (stereo not drawn)")
"243 nM"
>>> recorded_result("Cc1ccc(N2C(=O)Nc3ccccc3C2(O)C(=O)N2CCN(c3ccccn3)CC2)cc1C (stereo not drawn)")
"375 nM"
>>> recorded_result("COc1ccc(C(=O)c2ccc(OC)c(N)c2)cc1N")
"827 nM"
>>> recorded_result("CCc1ccc(OCC(=O)Nc2ccncc2)c(Br)c1")
"598 nM"
>>> recorded_result("CNC(=O)c1cccn(Cc2ccc(C(F)(F)F)cc2)c1=O")
"1240 nM"
>>> recorded_result("COc1cccc(/C=C2\\SC(=S)N(CCC(=O)N3CCCCC3)C2=O)c1")
"4370 nM"
>>> recorded_result("Cc1ccc(-c2cc(C(=O)N3CC(C)OC(C)C3)c3ccccc3n2)o1 (stereo not drawn)")
"2910 nM"
>>> recorded_result("CCOc1ccc(/C=C2\\SC(N3CCCCC3)=NC2=O)cc1")
"5570 nM"
>>> recorded_result("C=CCNc1nc2cc(-c3ccccc3C)sc2c(=O)n1C")
"1110 nM"
>>> recorded_result("NS(=O)(=O)c1ccc(NC(=O)c2cccc3cc4ccccc4nc23)cc1")
"6580 nM"
>>> recorded_result("C[C@H](CO)N1C[C@H](C)[C@@H](CN(C)S(=O)(=O)c2cccs2)Oc2c(NC(=O)Cc3ccccc3)cccc2C1=O")
"2960 nM"
>>> recorded_result("CC(=O)Nc1ccc(/C=C/C(=O)c2ccc3c(c2)OCCO3)cc1")
"2880 nM"
>>> recorded_result("C[C@@H](NC(=O)c1ncn2c1c(=O)[nH]c1ccc(Br)cc12)c1ccccc1")
"210 nM"
>>> recorded_result("CC(C)(C)OC(=O)[C@H](Cc1ccccc1)NC(=O)c1nc[nH]c1C(=O)N1CCc2ccccc2C1")
"2550 nM"
>>> recorded_result("CN(C)CCCN(C(=O)c1ccc(S(=O)(=O)N2CCc3ccccc3C2)cc1)c1nc2ccc(F)cc2s1")
"5390 nM"
>>> recorded_result("CCOc1nc(N=C(N)N)nc2c(C)cccc12")
"603 nM"
>>> recorded_result("C[C@@]12C(=O)Nc3ccc(Br)cc3C(=O)N1[C@H]1c3ccccc3OC[C@@H]1[C@@H]2c1ccccc1")
"785 nM"
>>> recorded_result("Cc1ccc(S(=O)(=O)[N-]c2nc3ccccc3nc2-n2cc[n+](Cc3ccccc3)c2)cc1")
"33.9 nM"
>>> recorded_result("O=C(c1ccccc1-c1ccccc1)N1CCN(c2ccccn2)CC1")
"2040 nM"
>>> recorded_result("COc1cccc(C(NC(C)=O)c2nc(-c3ccc(F)cc3OC)cs2)c1 (stereo not drawn)")
"63.3 nM"
>>> recorded_result("Nc1ccc(C(=O)Nc2ccccc2N)cc1")
"744 nM"
>>> recorded_result("COc1ccc(-c2cc(C(F)F)n3ncc(C(=O)n4ccnc4C)c3n2)cc1")
"2770 nM"
>>> recorded_result("CC(=O)c1ccc(Nc2nc(-c3sc(C)nc3C)cs2)cc1")
"17.3 nM"
>>> recorded_result("CCOC(=O)c1c(NC(C)=O)sc2c(OCCN(CC)CC)c(Br)ccc12")
"7.67 nM"
